Biological target: E3 ubiquitin-protein ligase XIAP (Homo sapiens)
Assay: XIAP binders, primary screen, biophysical, small-molecule microarray, fluorescence 635 nm (AID 1181)
Conditions: small-molecule microarray binding, higher = more signal
Category | rule: reported composite z-score within range, see low group: < -0.09; middle group: ≥ -0.09 and < 0.04; high group: ≥ 0.04

| Compound | Assigned class |
| --- | --- |
| CC(=O)NCCCC[C@@H]1NC(=O)[C@H]2C[C@@H](C(=O)NCCCCCN)[C@@H](c3ccc(O)cc3)N2C1=O | low group |
| CC(C)Cc1ccc(CN2CC[C@@H](NC(=O)c3ccccc3)C2)cc1 | low group |
| C=CCOC(=O)[C@@H]1[C@H]2C(=O)O[C@H](c3ccccc3)[C@H](c3ccccc3)N2[C@H](c2ccc(OCCOC(=O)[C@@H]3C[C@@H]4C(=O)N[C@@H](CC(C)C)C(=O)N4[C@@H]3c3ccc(O)cc3)cc2)[C@@]12C(=O)Nc1ccc(I)cc12 | high group |
| C=CC[C@]1(C(=O)NCC(O)CO)N=C(c2ccc(OCCCO)cc2)O[C@H]1c1ccccc1CN=[N+]=[N-] (stereo partly specified) | middle group |
| O=C(N1CCOCC1)[C@]1(CCS(=O)(=O)c2ccccc2)N=C(c2ccc(OCCCO)cc2)O[C@@H]1c1ccccc1 | middle group |
| C=CC[C@]1(C(=O)NCCN2CCOCC2)N=C(c2ccc(OCCCO)cc2)O[C@H]1c1ccccc1 | middle group |
| O=C1c2ccccc2[C@@]2(Cc3ccccc3N(CC(F)(F)F)C2=O)[C@H](c2ccc(CO)cc2)N1Cc1ccccc1 | low group |
| CC1(C)OB(/C=C\CC(OC(=O)c2ccncc2)c2ccccc2)OC1(C)C (stereo unspecified) | high group |
| O=C1OC[C@@H](c2ccccc2)n2cc(/C=C/c3ccccc3)cc21 | low group |
| C=CCN1C(=O)[C@@]2(O[C@@H](CCO)[C@H]([Si](C)(C)c3ccc(OC)cc3)[C@H]2C)c2cc(N3CCCCC3=O)ccc21 | high group |
| CCCNC(=O)[C@@]1(Sc2ccc(C)cc2)CC(=O)N(Cc2cc(C(F)(F)F)cc(C(F)(F)F)c2)[C@@H]1c1ccc(CO)cc1 | low group |
| O=C1c2ccccc2[C@](Cc2ccccc2I)(C(=O)NCCN2CCOCC2)[C@H](c2ccc(CO)cc2)N1Cc1ccccc1C(F)(F)F | middle group |
| CCCCC=C[C@@H](NC(=O)C(C)(C)C)c1ccccc1 | middle group |
| CCOC(=O)C=C1C[C@@H](c2cccc([N+](=O)[O-])c2)O[C@@H](c2cccc([N+](=O)[O-])c2)O1 | high group |
| CN(C)CCCCCCNC(=O)[C@@H]1C[C@@H]2C(=O)N[C@@H](CCCC[N+](C)(C)C)C(=O)N2[C@@H]1c1cccc(OCCO)c1 | high group |
